- SETTINGS: [M+H]+; instrument: DT; stepped-field
QUANTITY MEASURED: collision cross section (N2) (Å²)

Solved entries (count: 3):
{"COMPOUND": "Cc1cc2nc3c(=O)[nH]c(=O)nc-3n(C[C@H](O)[C@H](O)[C@H](O)COP(=O)(O)O)c2cc1C [Riboflavin 5'-Monophosphate]", "QUANTITY MEASURED": "collision cross section (N2)", "EXPERIMENTAL VALUE": 201.48}
{"COMPOUND": "C=C(C)[C@H]1Cc2c(ccc3c2O[C@@H]2COc4cc(OC)c(OC)cc4[C@@H]2C3=O)O1 [Rotenone]", "QUANTITY MEASURED": "collision cross section (N2)", "EXPERIMENTAL VALUE": 199.63}
{"COMPOUND": "C=CCc1ccc(OC)c(OC)c1 [Methyleugenol]", "QUANTITY MEASURED": "collision cross section (N2)", "EXPERIMENTAL VALUE": 138.94}

P. NC(=O)[C@@H]1CCCN1C(=O)[C@H](Cc1cnc[nH]1)NC(=O)[C@@H]1CCC(=O)N1 [Thyrotropin-releasing hormone]
Q. OCCNCCO [Diethanolamine]
Q: Which of these two has the smaller recorded collision cross section (N2): P or Q ? The response must carry the label of the picked entry.
A: Q

====

- SETTINGS: [M+H]+; instrument: TW; calibrated with polyalanine and drug standards
QUANTITY MEASURED: collision cross section (N2) (Å²)

{"COMPOUND": "Cn1cnc([N+](=O)[O-])c1Sc1ncnc2nc[nH]c12 [AZATHIOPRINE]", "VALUE UNIT": "Å²", "collision cross section (N2)": 155.1}
{"COMPOUND": "COC(=O)[C@H]1[C@H]2C[C@@H]3c4[nH]c5cc(OC)ccc5c4CCN3C[C@H]2C[C@@H](OC(=O)c2cc(OC)c(OC)c(OC)c2)[C@@H]1OC [RESERPINE]", "VALUE UNIT": "Å²", "collision cross section (N2)": 247.3}
{"COMPOUND": "C[C@@H]1O[C@@H](O[C@H]2[C@H](Oc3cc(O)c4c(=O)cc(-c5ccc(O)cc5)oc4c3)O[C@H](CO)[C@@H](O)[C@@H]2O)[C@H](O)[C@H](O)[C@H]1O [RHOIFOLIN]", "VALUE UNIT": "Å²", "collision cross section (N2)": 231.9}
{"COMPOUND": "Cc1cc2nc3c(=O)[nH]c(=O)nc-3n(C[C@H](O)[C@H](O)[C@H](O)CO)c2cc1C [RIBOFLAVIN]", "VALUE UNIT": "Å²", "collision cross section (N2)": 184.9}
{"COMPOUND": "CC(=O)N[C@@H](Cc1c[nH]c2ccccc12)C(=O)O [ACETYLTRYPTOPHAN]", "VALUE UNIT": "Å²", "collision cross section (N2)": 152.3}
{"COMPOUND": "O=c1c(O)c(-c2ccc(O)c(O)c2)oc2c(O[C@@H]3O[C@H](CO)[C@@H](O)[C@H](O)[C@H]3O)c(O)cc(O)c12 [GOSSYPIN]", "VALUE UNIT": "Å²", "collision cross section (N2)": 199.6}

1. COc1ccc(-c2oc3ccccc3c(=O)c2OC)cc1 [3,4'-DIMETHOXYFLAVONE]
2. CO/N=C(\C(=O)N[C@@H]1C(=O)N2C(C(=O)OCOC(=O)C(C)(C)C)=C(/C=C\c3scnc3C)CS[C@H]12)c1csc(N)n1 [CEFDITORIN PIVOXIL]
Q: I'm curious whether 1 or 2 has the smaller collision cross section (N2) number. Which is it? Write down the label attached to your selection.
A: 1
(1: 159.1 Å², 2: 238 Å²)
